ASSAY INFO: antimalarial activity against Dd2 strain (AID 2302);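 also: 0% = DMSO untreated growth and 100% = chloroquine plus artemisinin killed control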
RUN PARAMETERS: P. falciparum Dd2 in RBCs, LDH growth readout, 72 h; at 2 µM; hits give high values
PROPERTY NAME: growth inhibition (%)
Field format: number, assumed %, no unit text.

Check out these entries, answers already filled in.
[[record]]
compound = "Cc1ccc(CNC(=O)[C@H](CC(C)C)Nc2cc(C)nc(Nc3ccccc3)n2)cc1"
reported_measurement = 19

[[record]]
compound = "C=CCN1CCC(N(Cc2cccc(Oc3ccccc3)c2)C(=O)C(c2ccccc2)c2ccccc2)CC1"
reported_measurement = 79


# get_value(readout='growth inhibition', item= Cc1cccc2[nH]c(-c3ccc(-c4cccc(NC(=O)C(C)CN(C)C)c4)cc3)nc12 (stereo not given) )
61

# get_value(readout='growth inhibition', item= Cc1cccc2[nH]c(-c3cccc(-c4cccc(C(=O)NCc5nccn5C)c4)c3)nc12 )
50

# get_value(readout='growth inhibition', item= Cc1cccc2[nH]c(-c3ccc(-c4ccc(CNCc5cccc(N)c5)cc4)s3)nc12 )
78

# get_value(readout='growth inhibition', item= C[C@@H]1CN(c2cnn(Cc3ccc(NC(=O)Nc4cccc(C(F)(F)F)c4)cc3)c(=O)c2Cl)C[C@H](C)N1 )
31

# get_value(readout='growth inhibition', item= O=C(Nc1cccc(F)c1)N[C@H]1CCN(CCCCCNC(=O)[C@@H]2C[C@H]2c2ccc(Cl)c(Cl)c2)C1 )
1

# get_value(readout='growth inhibition', item= CN(C)CCCN1CCN(Cc2ccc(-c3ccc(-c4nc5ccccc5[nH]4)s3)cc2)CC1 )
100

# get_value(readout='growth inhibition', item= Cc1cc(-c2cc3nc4c(c(=O)n3[nH]2)CCCC4)c(C)o1 )
82

# get_value(readout='growth inhibition', item= Cc1cccc2[nH]c(-c3cccc(-c4ccc(CNCc5cnn(-c6ccccc6)n5)cc4)c3)nc12 )
66

# get_value(readout='growth inhibition', item= O=C(Nc1ccc(Cl)c(C(F)(F)F)c1)c1ccc(Cl)c([N+](=O)[O-])c1 )
18

# get_value(readout='growth inhibition', item= COc1cccc(NC(=O)[C@H](C(C)C)n2c(=O)[nH]c3ccccc3c2=O)c1 )
100

# get_value(readout='growth inhibition', item= Cc1cc(N[C@@H](Cc2ccccc2)C(=O)NCCc2ccccc2)nc(NCC2CCCCC2)n1 )
95

# get_value(readout='growth inhibition', item= Cc1cc(-c2cnc(N)c(-c3ccc(N4CCN(C)CC4)cc3)c2)cc(C)c1O )
99

# get_value(readout='growth inhibition', item= O=C(Nc1cccc(CN2CCCN(Cc3cccc(Cl)c3)CC2)c1)c1ccc(-c2ccccc2)cc1 )
14
